We begin with a simple list: items and their reported Emax.
experimental system: hGIP-R (Homo sapiens, UniProt P48546)
Construct: expressed in transfected cells; host or cells: HEK-293 clonal cell lines
Sequence (P48546 22-466): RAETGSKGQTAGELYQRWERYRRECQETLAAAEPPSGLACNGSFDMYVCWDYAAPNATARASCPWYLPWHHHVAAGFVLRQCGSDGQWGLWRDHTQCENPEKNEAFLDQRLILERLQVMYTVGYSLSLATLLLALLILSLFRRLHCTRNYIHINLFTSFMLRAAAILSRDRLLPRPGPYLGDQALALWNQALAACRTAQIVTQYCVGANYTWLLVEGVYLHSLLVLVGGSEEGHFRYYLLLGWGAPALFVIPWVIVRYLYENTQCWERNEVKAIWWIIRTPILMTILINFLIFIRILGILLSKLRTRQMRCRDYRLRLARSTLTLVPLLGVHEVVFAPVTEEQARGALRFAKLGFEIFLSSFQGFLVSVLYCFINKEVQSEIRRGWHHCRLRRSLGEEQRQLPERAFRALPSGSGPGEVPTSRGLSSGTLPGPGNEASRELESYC
measurement protocol: Functional hGIP-R Assay (cAMP formation, HTRF)
Type: cell-based
experimental context: cAMP efficacy; percent of maximal response to GIP(1-42)OH; 37° C., 0.1% bovine casein; arithmetic mean ± SEM
Kindly provide the numeric value in % only, without the unit symbol.

Cc1cn2cc(-c3ccc([C@H]4C[C@@]45CCN([C@H](Cc4cnn(C(F)F)c4)C(=O)NC(C)(C)Cn4nc(C(F)(F)F)cc4-c4cnc(C6CC6)nc4)C5=O)cc3)cnc2n1 (single isomer, unassigned; isomer 1) [Example 101]; 59.6
Cc1cn2cc(-c3ccc(C4CC45CCN([C@H](Cc4cnn(C(F)F)c4)C(=O)NC(C)(C)Cn4nc(C(F)(F)F)cc4-c4ccn(C6CC6)c(=O)c4)C5=O)c(C4CC4)n3)cnc2n1 (single isomer, unassigned) [Example 167]; 92.1

Q: Recorded Emax for CC(C)(Cn1cc(C(F)(F)F)cn1)NC(=O)[C@@H](Cc1cnc2ncccn12)NC(=O)[C@H]1C[C@@H]1c1ccc(-c2cnc3nn(CC4CCC4)cc3c2)cc1 [Example 77] , please?
Ans: 103

Recorded values, source patent US20260108546A1.
